Origin of measurements: patent EP0946545B1

- measurement.target: human jejunal NK2 receptor (Homo sapiens)
- Construct: expressed in transfected cells; host or cells: HSKR-1 cells (mouse 3T3 fibroblasts)
- Sequence (P21452 1-398): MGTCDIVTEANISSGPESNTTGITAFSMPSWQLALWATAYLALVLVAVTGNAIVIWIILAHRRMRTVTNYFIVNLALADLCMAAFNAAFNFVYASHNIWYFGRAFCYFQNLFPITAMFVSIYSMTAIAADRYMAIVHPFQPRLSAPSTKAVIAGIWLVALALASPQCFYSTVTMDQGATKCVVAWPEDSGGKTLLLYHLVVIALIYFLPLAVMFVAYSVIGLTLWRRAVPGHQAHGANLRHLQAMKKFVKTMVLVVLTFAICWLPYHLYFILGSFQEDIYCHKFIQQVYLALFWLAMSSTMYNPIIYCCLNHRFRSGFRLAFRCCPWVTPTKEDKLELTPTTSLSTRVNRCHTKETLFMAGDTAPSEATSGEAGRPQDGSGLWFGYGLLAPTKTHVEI
- test.name: Antagonism of iodinated tachykinin binding to NK2 receptors (Example A)
# pIC50 listing for each entry below
Remember, pIC50 is on a log scale: it is -log10 of the molar concentration.

Consider the worked cases shown below.
- compound: "COc1cc(C(=O)N2CC[C@](CCN3CCC(C(=O)N4CCN(CC(=O)O)CC4)(c4ccccc4)CC3)(c3ccc(Cl)c(Cl)c3)C2)cc(OC)c1OC [Example 9.2]"
  measured.number: 8.50
- compound: "CCOC(=O)CCCN1CCN(C(=O)C2(c3ccccc3)CCN(CC[C@]3(c4ccc(Cl)c(Cl)c4)CCN(C(=O)c4cc(OC)c(OC)c(OC)c4)C3)CC2)CC1 [Example 29.2]"
  measured.number: 8.49
- compound: "CCOC(=O)CN1CCN(C(=O)C2(c3ccccc3)CCN(CC[C@]3(c4ccc(Cl)c(Cl)c4)CCN(C(=O)c4cc(-n5cnnn5)ccc4OC)C3)CC2)CC1 [Example 10.4]"
  measured.number: 7.29
- compound: "COc1cc(C(=O)N2CC[C@](CCN3CCC(C(=O)N4CCN(CCC(=O)O)CC4)(c4ccccc4)CC3)(c3ccc(Cl)c(Cl)c3)C2)cc(OC)c1OC [Example 28.2]"
  measured.number: 8.43
- compound: "COc1cc(C(=O)N2CC[C@](CCN3CCC(C(=O)N4CCC(C(=O)O)CC4)(c4ccccc4)CC3)(c3ccc(Cl)c(Cl)c3)C2)cc(OC)c1OC [Example 22.1]"
  measured.number: 8.20

// assay human jejunal NK2 receptor (Homo sapiens), entry COc1cc(C(=O)N2CC[C@](CCN3CCC(C(=O)N4CCC[C@H]4C(=O)O)(c4ccccc4)CC3)(c3ccc(Cl)c(Cl)c3)C2)cc(OC)c1OC [Example 15.2] , pIC50 value = 7.76

====

- measurement.target: NK1 receptor (Cavia porcellus, UniProt P30547)
- Construct: evaluated in guinea pig lungs (Keystone Biologicals, Cleveland, OH); tissue Keystone Biologicals, Cleveland, OH; host or cells: guinea pig lung membranes
- Sequence (P30547 whole entry): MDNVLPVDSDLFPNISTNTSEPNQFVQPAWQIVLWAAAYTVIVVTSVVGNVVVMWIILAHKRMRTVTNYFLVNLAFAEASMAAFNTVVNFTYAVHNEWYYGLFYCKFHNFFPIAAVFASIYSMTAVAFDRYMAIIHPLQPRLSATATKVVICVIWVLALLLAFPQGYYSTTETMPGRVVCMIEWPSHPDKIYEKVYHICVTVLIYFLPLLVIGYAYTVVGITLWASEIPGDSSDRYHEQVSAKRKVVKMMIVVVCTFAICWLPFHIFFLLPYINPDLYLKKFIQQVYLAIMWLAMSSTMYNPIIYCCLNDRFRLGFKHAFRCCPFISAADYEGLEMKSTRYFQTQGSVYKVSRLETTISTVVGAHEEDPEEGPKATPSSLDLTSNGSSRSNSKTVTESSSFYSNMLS
- test.name: Antagonism of iodinated tachykinin binding to NK1 receptors (Example A)
- Set-up: species or system guinea pig
- Method: One skilled in the art can determine the NK1 receptor and NK2 receptor affinity in vitro as follows. The NK1 receptor affinity of tachykinin antagonists is evaluated in guinea pig lungs (Keystone Biologicals, Cleveland, OH) and affinity for the NK2 receptor is evaluated in HSKR-1 cells (which are mouse 3T3 fibroblasts expressing the human jejunal NK2 receptor). […] Filter bound radioactivity is quantitated in a gamma counter. […]
property: pIC50
Remember, pIC50 is on a log scale: it is -log10 of the molar concentration.

Consider the worked cases shown below.
- molecule: "COc1cc(C(=O)N2CC[C@](CCN3CCC(C(=O)N4CCC(C(=O)O)CC4)(c4ccccc4)CC3)(c3ccc(Cl)c(Cl)c3)C2)cc(OC)c1OC [Example 22.1]"
  measurement.target: "NK1 receptor (Cavia porcellus, UniProt P30547)"
  pIC50: 8.39
- molecule: "COc1cc(C(=O)N2CC[C@](CCN3CCC(C(=O)N4CCN(CC(=O)O)CC4)(c4ccccc4)CC3)(c3ccc(Cl)c(Cl)c3)C2)cc(OC)c1OC [Example 9.2]"
  measurement.target: "NK1 receptor (Cavia porcellus, UniProt P30547)"
  pIC50: 8.25

Now let's try a different one.
// assay NK1 receptor (Cavia porcellus, UniProt P30547), entry CCOC(=O)CCCN1CCN(C(=O)C2(c3ccccc3)CCN(CC[C@]3(c4ccc(Cl)c(Cl)c4)CCN(C(=O)c4cc(OC)c(OC)c(OC)c4)C3)CC2)CC1 [Example 29.2] , pIC50 value = 7.92
